target: UV-inactivated SARS-CoV preparation (Frankfurt 1 strain) (SARS-CoV strain Frankfurt 1); assay: phage ELISA, plate 3 (no phage 0.054)
# key: entry, value: OD492nm
Report the value in OD492nm with no unit label.

Binder	Unit string	OD492nm
SC03-036 (scFv) scFv: AMAEVQLVQSGTEVKKPGESLKISCKGSGYGFITYWIGWVRQMPGKGLEWMGIIYPGDSETRYSPSFQGQVTISADKSINTAYLQWSSLKASDTAIYYCAGGSGISTPMDVWGQGTTVTVSSGTGGSGGTGSGTGGSTDIQMTQSPDSLAVSLGERATINCKSSQSVLHSPNNKNYLAWYQQKPGQPPKLLIYWASTRESGVPDRFSGSGSGTDFTLTISSLQAEDVAVYYCQQYYSTNSFGQGTKLEIKRAA	OD492nm	0.24
SC03-046 (scFv) scFv: AMAEVQLVQSGGGLVQPGGSLRLSCAASGFTFSSYAMHWVRQAPGKGLEYVSGISSNGGSTYYANSVKGRFTISRDNSKNTLYLQMGSLRAEDMAVYYCARTTNRAFDIWGQGTMVTVSSGTGGSGGTGSGTGGSTDVVMTQSPDSLAVSLGERATINCKSSQSVLYSSNNKNYLAWYQQKPGQPPKLLIYWASTRESGVPDRFSGSGSGTDFSLTISSLQAEDVAVYYCQQYYSPPYTFGPGTKVEIKRAA	OD492nm	1.9

Exercise: Quick one: OD492nm for SC03-043 (scFv) scFv: AMAQVQLVQSGGGLVQPGGSLRLSCAASGFTFSSYAMHWVRQAPGKGLEYVSGISSNGGSTYYANSVKGRFTISRDNSKNTLYLQMGSLRAEDMAVYYCARTTNRAFDIWGQGTMVTVSSGTGGSGGTGSGTGGSTDIQLTQSPDSLAVSLGERATINCKSSQSVLYRSNNKNYLAWYQQKPGQPPKLLIYWASTRESGVSERFSGSGSGTDFTLTISSLQAEDVAVYYCQQYYSTPYSFGQGTKLEIKRAA ?
Key: 1.27

Every entry's value here was drawn from patent EP1644414B1.
